For each record, write down the corresponding nuclei count.
# Protocol summary: reduction of polyQ htt aggregates in cells – imaging, exon1htt(103Q)mCFP cells, high-content imaging, primary screen (AID 483);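 note: compound exposure lasted 3 days before fixation; percent of the per-plate median nuclei count of sample wells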
# Settings: exon1htt(103Q)mCFP cell line, aggregate imaging, at 2 µM; measured here: cell count, toxicity
State just the number; it will be interpreted in %.

nuclei count reported for this molecule COc1ccccc1S(=O)(=O)n1cc(Cc2ccccc2)c(N)n1 : 89

nuclei count reported for this molecule CN(C)/C=c1\sc2c(C#N)cc(C(=O)c3ccc(Br)cc3)n2c1=O : 102

nuclei count reported for this molecule COc1ccc(OC)c(NC(=O)CSc2nc3ccccc3c(=O)n2CCNC(C)=O)c1 : 111

nuclei count reported for this molecule Cc1ccccc1CN1CCNC1=O : 88.7

nuclei count reported for this molecule COc1ccc(CC(=O)OCc2nnc(C3COc4ccccc4O3)o2)cc1OC (stereo not given) : 91.8

nuclei count reported for this molecule Cc1cc(NC(=O)Cn2cnc3c2c(=O)n(C)c(=O)n3C)n(-c2ccccc2)n1 : 99.2

nuclei count reported for this molecule COc1ccccc1N1CCN(C(=O)c2ccc(CS(=O)(=O)c3ccccc3OC)o2)CC1 : 110

nuclei count reported for this molecule Cc1ccc(NC(=O)c2ccc(NS(=O)(=O)c3c(C)noc3C)cc2)cc1C : 94.1

nuclei count reported for this molecule CCn1c(=O)cc(SCC(=O)N2CCOCC2)c2ccccc21 : 115

nuclei count reported for this molecule CC1(C)CC(=O)C(C=NCCc2ccc(S(N)(=O)=O)cc2)=C(O)C1 : 114

nuclei count reported for this molecule COc1ccc(CN(CCN(C)C)c2ccccn2)cc1 : 105

nuclei count reported for this molecule CCOC(=O)c1ccc(COC(=O)CCc2nc3ccccc3[nH]c2=O)o1 : 108

nuclei count reported for this molecule Cn1c(=O)[nH]c(=O)c2[nH]c(CN3CCN(C(=O)c4ccco4)CC3)nc21 : 124

nuclei count reported for this molecule Cc1ccc2c(COn3nnc4ccc(S(=O)(=O)N(C)C)cc43)cc(=O)oc2c1C : 96.2

nuclei count reported for this molecule CC(C)Cn1c(=O)c(C(=O)NCc2ccccn2)c(O)c2ccccc21 : 104

----------
For each record, write down the corresponding nuclei count.
# Protocol summary: endothelial E-selectin expression blockers – imaging, HUVEC, immunofluorescence, MLSMR starter and 10KST1 sets, primary screen (AID 487);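 note: 100% = median nuclei count of all wells on the same plate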
# Settings: HUVEC TNFalpha-induced E-selectin immunofluorescence imaging, at 2 µM; measured here: cell number, toxicity
State just the number; it will be interpreted in %.

nuclei count reported for this compound O=C(OCc1nnc(-c2ccccc2)o1)c1ccc(S(=O)(=O)NCc2ccco2)cc1 : 113

nuclei count reported for this compound COCCOC(=O)C1=C(C)Nc2ncnn2C1c1ccc(F)cc1 (stereo not drawn) : 124

nuclei count reported for this compound Cc1cccc(OCC(=O)NCC(=O)n2nc(C)cc2C)c1 : 146

----------
# Protocol summary: inhibitors of TNFa-induced NFkB p65 translocation, primary screen, imaging, HUVEC, MLSMR starter and 10KST1 sets (AID 438);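 note: compound added about 3h40 before a 20 min TNFalpha stimulation; signal is the nuclear over cytoplasmic p65 intensity ratio per well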
# Settings: HUVEC TNFa-induced p65 nuclear translocation; at 2 µM, stronger effect = higher value, 0% TNFa-plus-vehicle, 100% no-TNFa wells
Property name: inhibition (%)
State just the number; it will be interpreted in %.

inhibition reported for this molecule Cc1ccc(CNC(=O)C2CCCN(S(=O)(=O)c3cccnc3)C2)cc1 (configuration not stated) : -3.9

inhibition reported for this molecule O=C(CCCn1c(=O)c2sccc2n(CC(=O)NCc2ccco2)c1=O)NCc1ccco1 : 2.8

inhibition reported for this molecule Cc1ccc(S(=O)(=O)N2CCCC2)cc1S(=O)(=O)N1CCCC1 : -9

inhibition reported for this molecule CC1CCCC(C(=O)OCc2ccccc2)N1 (configuration not stated) : -10.9

inhibition reported for this molecule CCOC(=O)C1=C(CC)Nc2ccccc2N=C1NC(=O)Nc1ccccc1OC : -12.3

inhibition reported for this molecule COCCN1C(=O)C(=O)/C(=C(/O)c2ccc(OC(C)C)cc2)C1c1cccnc1 (configuration not stated) : -4.7

inhibition reported for this molecule COc1ccc(CCNC(=O)c2cc(-c3cc(C)c(C)cc3O)n[nH]2)cc1OC : 2.8
